Origin of values: patent US20130190223A1

tested on: human lymphocytes; assay: Immunosuppressive potency: inhibition of proliferation of anti-CD3 stimulated human lymphocytes (CFSE, flow cytometry); assay type: cell-based; conditions: relative potency: IC50 for inhibition of cell division normalized to CsA, 3 days incubation
Give measured Immunosuppression (% Relative to CsA) for each item. Keep answers brief.

Request: Param item = CCC1NC(=O)C(C(O)C(C)CC(O)CO)N(C)C(=O)C(C(C)C)N(C)C(=O)C(CC(C)C)N(C)C(=O)C(CC(C)C)N(C)C(=O)C(C)NC(=O)C(C)NC(=O)C(CC(C)C)N(C)C(=O)C(C(C)C)NC(=O)C(CC(C)C)N(C)C(=O)CN(C)C1=O (stereo not shown) ; retrieve measured Immunosuppression (% Relative to CsA).
Response: <1%

Request: Param item = CCC1NC(=O)C(C(O)C(C)CC=CCCCCCCCCCC(=O)N(C)C)N(C)C(=O)C(C(C)C)N(C)C(=O)C(CC(C)C)N(C)C(=O)C(CC(C)C)N(C)C(=O)C(C)NC(=O)C(C)NC(=O)C(CC(C)C)N(C)C(=O)C(C(C)C)NC(=O)C(CC(C)C)N(C)C(=O)CN(C)C1=O (stereo not shown) ; retrieve measured Immunosuppression (% Relative to CsA).
Response: 11%

Request: Param item = CCCNC(=O)CCC=CCC(C)C(O)C1C(=O)NC(CC)C(=O)N(C)CC(=O)N(C)C(CC(C)C)C(=O)NC(C(C)C)C(=O)N(C)C(CC(C)C)C(=O)NC(C)C(=O)NC(C)C(=O)N(C)C(CC(C)C)C(=O)N(C)C(CC(C)C)C(=O)N(C)C(C(C)C)C(=O)N1C (stereo not shown) ; retrieve measured Immunosuppression (% Relative to CsA).
Response: <1%

Request: Param item = CCC1NC(=O)C(C(O)C(C)CC=CCCCCC(=O)N2CCOCC2)N(C)C(=O)C(C(C)C)N(C)C(=O)C(CC(C)C)N(C)C(=O)C(CC(C)C)N(C)C(=O)C(C)NC(=O)C(C)NC(=O)C(CC(C)C)N(C)C(=O)C(C(C)C)NC(=O)C(CC(C)C)N(C)C(=O)CN(C)C1=O (stereo not shown) ; retrieve measured Immunosuppression (% Relative to CsA).
Response: <1%

----------
tested on: human lymphocytes; test: Immunosuppressive potency: inhibition of proliferation of anti-CD3 stimulated human lymphocytes (CFSE, flow cytometry); type: cell-based; conditions: relative potency: IC50 for inhibition of cell division normalized to CsA, 3 days incubation
quantity.kind: Immunosuppression (% Relative to CsA) (%)
Write the answer as a number in %, unit excluded.

Request: Param item = CCC1NC(=O)C(C(O)C(C)CCCCCCCCO)N(C)C(=O)C(C(C)C)N(C)C(=O)C(CC(C)C)N(C)C(=O)C(CC(C)C)N(C)C(=O)C(C)NC(=O)C(C)NC(=O)C(CC(C)C)N(C)C(=O)C(C(C)C)NC(=O)C(CC(C)C)N(C)C(=O)CN(C)C1=O (stereo not drawn) [Compound 420-112] ; retrieve measured Immunosuppression (% Relative to CsA).
Response: 2

Request: Param item = CCC1NC(=O)C(C(O)C(C)CCCC(C)O)N(C)C(=O)C(C(C)C)N(C)C(=O)C(CC(C)C)N(C)C(=O)C(CC(C)C)N(C)C(=O)C(C)NC(=O)C(C)NC(=O)C(CC(C)C)N(C)C(=O)C(C(C)C)NC(=O)C(CC(C)C)N(C)C(=O)CN(C)C1=O (stereo not drawn) [Compound 404-98] ; retrieve measured Immunosuppression (% Relative to CsA).
Response: 3

Request: Param item = CCC(O)CCCC(C)C(O)C1C(=O)NC(CC)C(=O)N(C)CC(=O)N(C)C(CC(C)C)C(=O)NC(C(C)C)C(=O)N(C)C(CC(C)C)C(=O)NC(C)C(=O)NC(C)C(=O)N(C)C(CC(C)C)C(=O)N(C)C(CC(C)C)C(=O)N(C)C(C(C)C)C(=O)N1C (stereo not drawn) [Compound 404-195] ; retrieve measured Immunosuppression (% Relative to CsA).
Response: 2

Request: Param item = CCC1NC(=O)C(C(O)C(C)CC=CCCCCCCNC(=O)OC(C)(C)C)N(C)C(=O)C(C(C)C)N(C)C(=O)C(CC(C)C)N(C)C(=O)C(CC(C)C)N(C)C(=O)C(C)NC(=O)C(C)NC(=O)C(CC(C)C)N(C)C(=O)C(C(C)C)NC(=O)C(CC(C)C)N(C)C(=O)CN(C)C1=O (stereo not drawn) [Compound 420-120] ; retrieve measured Immunosuppression (% Relative to CsA).
Response: 3

Request: Param item = CCC1NC(=O)C(C(O)C(C)CC=CCCCCC(=O)N(C)C)N(C)C(=O)C(C(C)C)N(C)C(=O)C(CC(C)C)N(C)C(=O)C(CC(C)C)N(C)C(=O)C(C)NC(=O)C(C)NC(=O)C(CC(C)C)N(C)C(=O)C(C(C)C)NC(=O)C(CC(C)C)N(C)C(=O)CN(C)C1=O (stereo not drawn) [Compound 404-154] ; retrieve measured Immunosuppression (% Relative to CsA).
Response: 2
